# experiment-summary: SH-SY5Y viability (MTS)
# Type: cell-based
# assay-setup: human, neuroblastoma SH-SY5Y cells, 10 µM, read-out: SH-SY5Y cell viability, % of control
test-readout: viability at 72 h, 10 µM (%)

| molecule | unit-abbreviation | number |
| --- | --- | --- |
| CN(C)C1CC(=O)N(C(C(=O)N2CCN(c3cccc(C(F)(F)F)c3)CC2)c2ccccc2)C1=O.Cl (stereo not shown) [Compound 14] | % | 140 |

* * *

# experiment-summary: Pharmacokinetic study in mice, serum and brain (LC-MS/MS)
# Assay type: in vivo, mouse
# assay-setup: male, CD-1, mouse, serum, ip, 40 mg/kg; mice i.p.; calculated for the free base; read-out: C30 min. in serum

| molecule | unit-abbreviation | concentration at 30 min |
| --- | --- | --- |
| CN(C)C1CC(=O)N(C(C(=O)N2CCN(c3cccc(C(F)(F)F)c3)CC2)c2ccccc2)C1=O.Cl (stereo not shown) [Compound 14] | µM | 24.3 |

* * *

# experiment-summary: Pharmacokinetic study in mice, serum and brain (LC-MS/MS)
# Format: in vivo, mouse
# assay-setup: male, CD-1, mouse, brain, ip, 40 mg/kg; mice i.p.; calculated for the free base; read-out: Cmax in the brain
# Procedure: The amount of the target compound in the serum and brain was determined by an LC-MS/MS system. […] The compound also very quickly penetrated to the murine brain and reached the maximum concentration in this organ at 15 min. […] The validated quantitation ranges for this method were within the expected concentration ranges, namely, from 0.1 to 20 µg/mL of serum and from 0.05 to 10 µg/g of brain tissue with accuracy from 93.73 to 104.29% and from 88.33 to 107% for serum and brain, respectively. […]
test-readout: Cmax (µM)

| compound | number |
| --- | --- |
| CN(C)C1CC(=O)N(C(C(=O)N2CCN(c3cccc(C(F)(F)F)c3)CC2)c2ccccc2)C1=O.Cl (stereo not shown) | 10.9 |

* * *

# experiment-summary: Pharmacokinetic study in mice, serum and brain (LC-MS/MS)
# Format: in vivo, mouse
# assay-setup: male, CD-1, mouse, ip; brain; mice, 40 mg/kg i.p.; non-compartmental analysis; read-out: λz (converted)
test-readout: k el (s⁻¹)

| compound | number |
| --- | --- |
| CN(C)C1CC(=O)N(C(C(=O)N2CCN(c3cccc(C(F)(F)F)c3)CC2)c2ccccc2)C1=O.Cl (stereo not shown) [Compound 14] | 0.000183 |

* * *

Documented melting point across a set of compounds

| compound | melting point |
| --- | --- |
| CNC1CC(=O)N(C(C(=O)N2CCN(c3cccc(C(F)(F)F)c3)CC2)c2ccccc2)C1=O.Cl (stereo not drawn) [Compound 13] | 161.2 to 163.4 °C |
| CN(C)C1CC(=O)N([C@@H](C(=O)N2CCN(c3cccc(SC(F)(F)F)c3)CC2)c2ccccc2)C1=O.Cl (stereo partly drawn) [(C1-R)-33] | 173.2 to 174.7 °C |
| CN(C)C1CC(=O)N(C(C(=O)N2CCN(c3cccc(OC(F)(F)F)c3)CC2)c2ccccc2)C1=O.Cl (stereo not drawn) [Compound 17] | 152.3 to 153.5 °C |

* * *

# Test system: mice
# experiment-summary: Subcutaneous pentylenetetrazole (scPTZ) seizure test
# Format: in vivo, mouse
# assay-setup: Mus musculus, ip; mice i.p.; 95% confidence interval in parentheses

| molecule | ED50 |
| --- | --- |
| CCC1(C)CC(=O)NC1=O (stereo not shown) [ETX, ethosuximide, reference compound] | 140 mg/kg |
| CN(C)C1CC(=O)N(C(C(=O)N2CCN(c3cccc(C(F)(F)F)c3)CC2)c2ccccc2)C1=O.Cl (stereo not shown) [Compound 14] | 67.4 mg/kg |
| CN(C)C1CC(=O)N([C@@H](C(=O)N2CCN(c3cccc(C(F)(F)F)c3)CC2)c2ccccc2)C1=O.Cl (stereo partly shown) [(C1-R)-31] | 65.5 mg/kg |
| CNC1CC(=O)N(C(C(=O)N2CCN(c3cccc(C(F)(F)F)c3)CC2)c2ccccc2)C1=O.Cl (stereo not shown) [Compound 13] | 85.6 mg/kg |
| CN(C)C1CC(=O)N(C(C(=O)N2CCN(c3cccc(OC(F)(F)F)c3)CC2)c2ccccc2)C1=O.Cl (stereo not shown) [Compound 17] | 31.3 mg/kg |
| CCCC(CCC)C(=O)O [VPA, valproic acid, reference compound] | 239 mg/kg |
| CN(C)C1CC(=O)N([C@@H](C(=O)N2CCN(c3cccc(OC(F)(F)F)c3)CC2)c2ccccc2)C1=O.Cl (stereo partly shown) [(C1-R)-32] | 44.9 mg/kg |

These entries and their values trace back to paper PMC8658016.
